Provenance of the data: ChEMBL document CHEMBL1139389

Experiment: Protein binding in human plasma at 5 uM
Format: ADME, cell-free
Settings: read-out: PPB (converted)
endpoint.name: fraction unbound at 5 µM
Reply: number alone, nothing else.

Value of fraction unbound at 5 µM reported for the molecule C[C@]1(c2nc3c(C(N)=O)cccc3[nH]2)CCCN1 is 0.59

###

Test: Half life in cynomolgus monkey at 2.5 mg/kg, iv
Type: ADME, organism-based, Macaca fascicularis
Set-up: dose 2.5 mg/kg, route intravenous
Conditions: in vivo
endpoint.name: half-life (min)
The response must be a number in min with no trailing unit.

structure_smiles_string=C[C@]1(c2nc3c(C(N)=O)cccc3[nH]2)CCCN1 unit_abbrev=min value_observed=114

Here's the next entry for you.
Entry C[C@@]1(c2nc3c(C(N)=O)cccc3[nH]2)CCCN1 — recorded half-life = 90
